target: Solute carrier family 2, facilitated glucose transporter member 1 (Homo sapiens) (UniProt P11166); experiment: ST_JUDE_LEISH: Cytotoxicity at 2uM final concentration against transgenic Leishmania Mexicana promastigotes LmGLUT1 that are glucose transport deficient and complemented with the human glucose transporter GLUT1. Activity is measured by DNA content using SYBR green in vitro; type: functional
Sequence (P11166 whole entry): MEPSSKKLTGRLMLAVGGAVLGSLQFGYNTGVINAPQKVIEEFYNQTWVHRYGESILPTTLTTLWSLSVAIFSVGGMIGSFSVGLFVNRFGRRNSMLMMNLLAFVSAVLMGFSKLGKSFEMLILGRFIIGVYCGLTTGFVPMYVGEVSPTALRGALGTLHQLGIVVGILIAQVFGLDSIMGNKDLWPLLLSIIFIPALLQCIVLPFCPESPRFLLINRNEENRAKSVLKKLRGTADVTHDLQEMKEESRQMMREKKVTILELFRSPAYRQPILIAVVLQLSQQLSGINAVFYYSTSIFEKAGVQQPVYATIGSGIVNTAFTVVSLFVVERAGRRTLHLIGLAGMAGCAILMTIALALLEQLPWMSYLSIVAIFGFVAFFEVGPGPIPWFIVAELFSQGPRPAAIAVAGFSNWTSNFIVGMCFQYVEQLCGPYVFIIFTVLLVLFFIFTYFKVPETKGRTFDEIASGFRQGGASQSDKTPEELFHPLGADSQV
Can you tell me inhibition for the items I'm about to list?
Answers are plain numbers, in %.

Take a look at these entries with their results.
molecule	inhibition (%)
Cn1cncc1C(=O)Nc1cccc(-c2cccc(-c3nc4cc(F)ccc4[nH]3)c2)c1	4
O=C(Nc1ccc(Cl)cc1)c1ccc(CN2CCCN(CC3CCCCC3)CC2)cc1	4.77
COc1ccc(S(=O)(=O)N2CCC(NS(=O)(=O)c3ccc(F)cc3)CC2)cc1	3.51
COc1cc(C(=O)NCc2nn(CCN3CCC(N4CCCC4)CC3)cc2-c2ccc(Cl)c(Cl)c2)cc(OC)c1OC	-2.77
CN1CCCC(CN2CCN(Cc3cccc(-c4ccc(-c5nc6ccccc6[nH]5)cc4)c3)CC2)C1 (centres undefined)	7.48

// each molecule listed below needs its inhibition
1. COc1ccc(-c2cccc(NC(=O)c3ccc(C#N)cc3)c2)cc1CN1CCN(C)CC1
2. CC1=C(C(=O)Nc2ccccc2)C(c2ccc([N+](=O)[O-])cc2)n2ncc(C(=O)Nc3ccccc3)c2N1 (centres undefined)
3. Cc1ccc(C(=O)c2oc3ccc4c(C)cc(=O)oc4c3c2C)cc1

1: 16.1; 2: 14.2; 3: -0.73

----------
Can you tell me inhibition for the items I'm about to list?
molecular target: Solute carrier family 2, facilitated glucose transporter member 1 (Homo sapiens) (UniProt P11166); experiment: ST_JUDE_LEISH: Cytotoxicity at 2uM final concentration against transgenic Leishmania Mexicana promastigotes LmGLUT1 that are glucose transport deficient and complemented with the human glucose transporter GLUT1. Activity is measured by DNA content using SYBR green in vitro; assay type: functional
Answers are plain numbers, in %.

CNc1ccc(CNCc2cccc(-c3ccc(-c4nc5ccccc5[nH]4)cc3)c2)cc1 0.78
CN(C)CCCNCc1ccc(-c2ccc(CNCCc3ccccc3)cc2)cc1 -0.43
O=S(=O)(Nc1cccc(CCN2CCC(N3CCCCC3)CC2)c1)c1ccc(Oc2ccccc2)nc1 3.37
Cc1cccc2nc(-c3cccc(-c4cccc(CNCc5ccccc5)c4)c3)[nH]c12 1.86

Now look at this entry.
For record FC(F)(F)c1ccc2[nH]ccc(=NN=Cc3ccccc3)c2c1 the listed inhibition is 1.45

----------
target: Glucose transporter (Leishmania mexicana); test: ST_JUDE_LEISH: Cytotoxicity at 2uM final concentration against transgenic Leishmania Mexicana promastigotes LmGT2 that are glucose transport deficient and complemented with the L. Mexicana glucose transporter 2. Activity is measured by DNA content using SYBR green in vitro; assay type: functional
Can you tell me inhibition for the items I'm about to list?
Give bare numbers, in %.

compound	inhibition, %
COc1ccc2ncc(F)c(CCN3CC[C@@H](CNCc4nc5c(cc4C)SCC(=O)N5)C3)c2n1	0.49
CCOC(=O)C(C(=O)OCC)c1nc(C)ns1	0.53
COc1ccc(Nc2nc(C)cc(NC3CCCC3)n2)cc1	17.7
C=CCN(C(=O)c1ccc(Cl)c([N+](=O)[O-])c1)c1nc(-c2ccccc2)cs1	7.89
CC(=O)c1ccc(NC(=O)NNC(=O)c2ccc(CCN3CCC(c4nc(COCC(F)(F)F)c(-c5ccc(F)cc5)o4)CC3)cc2)cc1	-1.37

// each compound listed below needs its inhibition
1. O=C(NCCN1CCC(NC(=O)c2ccc(-c3ccccn3)s2)CC1)c1cccc(C(F)(F)F)c1
2. COc1ccccc1CCNc1nccc(N[C@@H](Cc2ccccc2)C(=O)NCc2cccs2)n1
3. CCC(C)C#Cc1c(C)nc(N)nc1N (stereo not given)

[3.43, -0.08, 0.17]

// each compound listed below needs its inhibition
1. COc1ccc(-c2cc(-c3nc4cc(CN)ccc4[nH]3)c(=O)n(C)c2)cc1OC
2. CN1CCC[C@H]1COc1ccc(CN2CC[C@H](NC(=O)c3ccc(Cl)c(Cl)c3)C2)cc1Cl

1. -0.74
2. -0.76

----------
target: Glucose transporter (Leishmania mexicana) (UniProt O61059); test: ST_JUDE_LEISH: Cytotoxicity at 2uM final concentration against transgenic Leishmania Mexicana promastigotes LmGT2 that are glucose transport deficient and complemented with the L. Mexicana glucose transporter 2. Activity is measured by DNA content using SYBR green in vitro; assay type: functional
reportedProperty: inhibition (%)
Numbers only, in %.

Take a look at these entries with their results.
compound	reportedProperty	reading
Fc1ccccc1CNc1ncc(-c2ccsc2)c(-c2nccs2)n1	inhibition	-3
O=C(Nc1ccc(C(=O)Oc2cccc3ccccc23)cc1)N[C@@H](Cc1ccc(O)cc1)C(=O)NC1CCN(Cc2ccc(O)cc2)C1 (stereo partly drawn)	inhibition	17.4
CCOc1cc(C2C(C(=O)OC(C)C)=C(C)NC3=C2C(=O)CC(c2ccc(Cl)cc2)C3)ccc1OC(C)=O (stereo not drawn)	inhibition	6.55
CS(=O)(=O)Cc1ccc(Nc2nccc(N3CCCc4cc(NC(=O)Nc5cccc(C(F)(F)F)c5)ccc43)n2)cc1	inhibition	2.08
CCN(CC)CCN(Cc1ccc(-c2ccc(C(F)(F)F)cc2)nc1)C(=O)Cn1c(SCc2ccc(F)cc2)nc(=O)c2sccc21	inhibition	1.84
Cc1cccc2nc(-c3ccc(-c4cccc(NC(=O)Nc5ccc(F)c(F)c5F)c4)cc3)[nH]c12	inhibition	0.59

// each compound listed below needs its inhibition
1. O=C(Nc1ccccc1)N(Cc1ccccc1-c1cccc(CNCc2ccc3c(c2)OCO3)c1)C1CCN(Cc2ccccc2)CC1
2. COc1ccc2ncc(F)c(CCN3CC(O)C(CNCc4ccc5oc(=O)ccc5c4)C3)c2n1 (stereo not drawn)

1: -2.56; 2: 5.19

----------
target: Hexose transporter 1 (Plasmodium falciparum); test: ST_JUDE_LEISH: Cytotoxicity at 2uM final concentration against transgenic Leishmania Mexicana promastigotes LmPfHT that are glucose transport deficient and complemented with the Plasmodium falciparum hexose transporter. Activity is measured by DNA content using SYBR green in vitro; format: functional
reportedProperty: inhibition (%)
Numbers only, in %.

molecule	inhibition / %
CC(C)(CNCc1ccc(C(F)(F)F)cc1)c1nc(-c2ccc(Cl)c(O)c2)c(-c2ccncc2)[nH]1	-0.09
CCCc1ccc(S(=O)(=O)NC2CCN(C(=O)Nc3ccc(I)cc3)CC2)cc1	5.51

// each molecule listed below needs its inhibition
1. Nc1cccc(CNCc2cccc(-c3ccc(-c4nc5cc(C(F)(F)F)ccc5[nH]4)cc3)c2)c1
2. Cc1nc(-c2cccc(C(=O)N(Cc3cncn3Cc3cccc(C(F)(F)F)c3)CC3CC3)c2)cs1

1. 6.83
2. 4.67

----------
Can you tell me inhibition for the items I'm about to list?
target: Solute carrier family 2, facilitated glucose transporter member 1 (Homo sapiens) (UniProt P11166); assay: ST_JUDE_LEISH: Cytotoxicity at 2uM final concentration against transgenic Leishmania Mexicana promastigotes LmGLUT1 that are glucose transport deficient and complemented with the human glucose transporter GLUT1. Activity is measured by DNA content using SYBR green in vitro; assay type: functional
One number for each entry, in %.

molecule	inhibition / %
O=C(/C=C/c1ccc(Cl)c(Cl)c1)NCCCCCCN1CCCN(C(=O)Nc2cccc(Cl)c2)CC1	-1.03
O=C(Nc1ccc(Cl)c(Cl)c1)N[C@H]1CCN(CCCCCNC(=O)C2CC2c2ccc(Cl)c(Cl)c2)C1 (some centres not stated)	12.3
CCOC(=O)c1nc(-c2cccnc2)[nH]c1NC(=S)NCc1ccccc1	1.58
N#Cc1ccc(N(CCOc2ccc(Cl)c(F)c2)Cc2ccccc2C(F)(F)F)cc1C(F)(F)F	3.18
CCOC(=O)c1ccc(NC(=O)N[C@@H](Cc2ccccc2)C(=O)NC2CCN(Cc3ccc(OCCCN(C)C)cc3)C2)cc1 (some centres not stated)	-0.91
O=C(Nc1cc(C(F)(F)F)ccc1Cl)c1ccc(Cn2cc(Br)cn2)cc1	1.23

// each molecule listed below needs its inhibition
1. Cc1cc(Cl)c(S(=O)(=O)N2CCc3ccccc32)cc1OCC(=O)NC1CCCCC1
2. CC(C)N(Cc1cnc2nc(N)nc(N)c2n1)c1ccc(Cl)c(Cl)c1

2.33
1.77

----------
target: Solute carrier family 2, facilitated glucose transporter member 1 (Homo sapiens); test: ST_JUDE_LEISH: Cytotoxicity at 2uM final concentration against transgenic Leishmania Mexicana promastigotes LmGLUT1 that are glucose transport deficient and complemented with the human glucose transporter GLUT1. Activity is measured by DNA content using SYBR green in vitro; type: functional
Can you tell me inhibition for the items I'm about to list?
One number for each entry, in %.

O=C(Nc1cccc(CN2CCCN(Cc3ccc(F)cc3)CC2)c1)c1cc2ccccc2s1 -2.26
O=C(NCCCCN1CCC(c2c[nH]c3ccc(-c4ccccc4)cc23)CC1)c1ccc(-c2ccccc2)cc1 5.96
O=C(Nc1ccc(N2CCCN(Cc3cccc(F)c3)CC2)cc1)c1ccc(F)cc1 4.73

// each molecule listed below needs its inhibition
1. CCOc1ccc(OCCCON2C(=N)N=C(N)NC2(C)C)cc1
2. COc1ccccc1CNc1ccnc(NCCc2cccc(C(F)(F)F)c2)n1

1. 1.93
2. 7.85
